- Tested on: HCT-116
- Method Summary: NCI tumour cell line growth inhibition, 48 h
Activity calls are given as the source filed them. Rule as the data show it: active = GI50 up to about 1.1 µM and inactive = higher.
# GI50 annotations

[[record]]
molecule = "COc1cccc(C2c3cc4c(cc3OC(N3CCOCC3)C2C)OCO4)c1 (centres undefined)"
system = "HCT-116"
result = "13.2 µM (inactive)"

[[record]]
molecule = "COc1cc([C@@H]2c3cc4c(cc3[C@@H](NC(=O)c3ccc(OC(C)=O)cc3)C3COC(=O)[C@@H]32)OCO4)cc(OC)c1O (some centres undefined)"
system = "HCT-116"
result = "2.61 µM (inactive)"

[[record]]
molecule = "ClC/C=C/COC1CCCCO1 (centres undefined)"
system = "HCT-116"
result = "> 100 µM (inactive)"


Kindly review the next molecule as well.
[ask] # input molecule: CC1(C)CCCCCCC2OC2CCCCCC(C)(C)C1=O (centres undefined) ; wanted: its GI50
[reply] 35.8 µM (inactive)

###

- System: CAKI-1
- Method Summary: NCI tumour cell line growth inhibition, 48 h
The source made the active and inactive calls. Cut-off read from the data, not from the text of the source: active = GI50 up to about 1.1 µM and inactive = higher.
Result Type: GI50

The examples below pair each entry with its known result.
[[record]]
compound = "COc1ccc2nc(N/N=C/c3ccc(C)s3)cc(C)c2c1"
system = "CAKI-1"
result_type = "GI50"
result = "23 µM (inactive)"

[[record]]
compound = "COc1cc([N+](=O)[O-])c(S(=O)(=O)O)cc1NS(=O)(=O)c1ccc(C)cc1"
system = "CAKI-1"
result_type = "GI50"
result = "> 100 µM (inactive)"

[[record]]
compound = "N#Cc1cc([N+](=O)[O-])ccc1NC(=O)/C(=N\\NC(=O)c1ccncc1)C(c1cnc2ccc([N+](=O)[O-])cc2n1)[N+](=O)[O-] (centres undefined)"
system = "CAKI-1"
result_type = "GI50"
result = "5.98 µM (inactive)"


Now for another entry.
[ask] Sample COc1ccccc1N1CCN(S(=O)(=O)c2ccc(Cl)cc2)C1=N — what was its GI50?
[reply] > 100 µM (inactive)

###

- Test system: OVCAR-4
- Method Summary: NCI tumour cell line growth inhibition, 48 h
The source made the active and inactive calls. No stated cut-off is given here; in the data, active = GI50 up to about 1.1 µM and inactive = higher.
Result Type: GI50

Solved cases (10 shown):
[[record]]
compound = "C#CCC(O)c1ccc(OC)c(OCc2ccccc2)c1 (stereo unspecified)"
result = "> 100 µM (inactive)"

[[record]]
compound = "CC(C)=NOC(=O)OC[C@H]1O[C@@H](n2cnc3c(N)ncnc32)C(O)C1O (stereo partly specified)"
result = "> 100 µM (inactive)"

[[record]]
compound = "Cc1ccc(O)c(C2=CC3=NNC(=O)C3C(c3cccc(Cl)c3)C2)c1 (stereo unspecified)"
result = "12.8 µM (inactive)"

[[record]]
compound = "CC[C@H]1OC([C@H](O)C/C=C\\C#C[Si](C)(C)C)C/C=C\\C[C@H]1O[Si](C)(C)C(C)(C)C (stereo partly specified)"
result = "> 100 µM (inactive)"

[[record]]
compound = "CCOP(=O)(OCC)[C@H](O)c1ccsc1"
result = "> 100 µM (inactive)"

[[record]]
compound = "CCOC(=O)C1CN(C2CC2)CCC1=O (stereo unspecified)"
result = "> 100 µM (inactive)"

[[record]]
compound = "CCOC(=O)Cn1nnc2ccc(Nc3nc4ccccc4nc3-c3ccccc3)cc21"
result = "68.9 µM (inactive)"

[[record]]
compound = "O=[N+]([O-])C(=C1Nc2ccccc2N1)C(Cl)=C(Cl)Cl"
result = "27 µM (inactive)"

[[record]]
compound = "C=C1C(=O)O[C@@H]2/C=C(\\C)CC/C=C(/COC(C)=O)C[C@@H](OC(C)=O)[C@@H]12"
result = "20.2 µM (inactive)"

[[record]]
compound = "CC1CC(c2ccccc2)=Nc2ccccc2S1 (stereo unspecified)"
result = "> 100 µM (inactive)"


[ask] Need GI50, item COc1cc(C2c3cc4c(cc3[C@@H](Nc3cccc(CO)c3)C3COC(=O)[C@H]23)OCO4)cc(OC)c1O (stereo partly specified)
[reply] 6.84 µM (inactive)

[ask] Reported GI50, compound Cc1ccc2c(O)cc(-c3cc4ccccc4s3)nc2n1 : ____
[reply] > 75 µM (inactive)

[ask] Tell me the measured GI50 of O=C(SCc1cccc2ccccc12)c1ccc(Cl)cc1 , please.
[reply] > 100 µM (inactive)

[ask] What does the record list as GI50 for C#CCN(Cc1ccc2nc(-c3ccccc3)c(Cl)nc2c1)c1ccc(F)cc1 ?
[reply] 59.8 µM (inactive)

[ask] Look up GI50: Cn1c2ccccc2c(=O)c2c(O)cc3c(c21)C=CC1(CCCCC1)O3
[reply] > 10 µM (inactive)

[ask] Form field: reported GI50 of Oc1ccnc(SCc2ccc(Cl)cc2)n1
[reply] > 100 µM (inactive)

[ask] # GI50 lookup, item N#CCN1C(=O)c2cc([N+](=O)[O-])cc3cc([N+](=O)[O-])cc(c23)C1=O
[reply] 14.8 µM (inactive)

[ask] Which GI50 reading was recorded for the compound Nn1c(CCCCCCCCc2nnc(-c3c(O)ccc4ccccc34)n2N)nnc1-c1c(O)ccc2ccccc12 ?
[reply] > 100 µM (inactive)

[ask] Consider the compound shown here: CC#CCCCC1(C)CCCNC1=S (stereo unspecified) What is its recorded GI50?
[reply] > 10 µM (inactive)

[ask] Quick one: GI50 of O=C1NC(=O)C2C(=O)NC(=O)C1C2c1c(Cl)cccc1Cl (stereo unspecified) ?
[reply] > 100 µM (inactive)
